Please consider the recorded IC50 for UniProtKB O42275 in what follows.
Sequence (O42275 whole entry): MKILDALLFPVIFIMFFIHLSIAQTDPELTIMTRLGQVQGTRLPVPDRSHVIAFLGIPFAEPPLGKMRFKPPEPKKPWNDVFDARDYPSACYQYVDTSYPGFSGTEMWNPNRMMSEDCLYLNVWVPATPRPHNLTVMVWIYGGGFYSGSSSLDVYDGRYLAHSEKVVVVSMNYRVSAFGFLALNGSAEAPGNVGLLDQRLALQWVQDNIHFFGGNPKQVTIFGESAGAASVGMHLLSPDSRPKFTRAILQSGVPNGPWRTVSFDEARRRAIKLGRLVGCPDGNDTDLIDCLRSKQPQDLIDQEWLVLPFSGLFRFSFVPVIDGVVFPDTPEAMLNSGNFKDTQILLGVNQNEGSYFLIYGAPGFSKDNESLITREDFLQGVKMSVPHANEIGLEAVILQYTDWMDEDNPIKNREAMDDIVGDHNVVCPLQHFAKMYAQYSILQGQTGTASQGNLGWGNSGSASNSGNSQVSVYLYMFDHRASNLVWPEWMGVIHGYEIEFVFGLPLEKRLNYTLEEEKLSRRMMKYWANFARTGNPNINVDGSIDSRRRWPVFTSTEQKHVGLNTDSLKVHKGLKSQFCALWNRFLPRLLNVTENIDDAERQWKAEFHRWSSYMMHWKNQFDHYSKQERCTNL

smilesEntry: O=c1ccc2ccc(OCCN3CCN(Cc4ccc(Br)cc4)CC3)cc2o1
system: UniProtKB O42275
IC50: > 100 µM
//
smilesEntry: Cc1c(C#N)c(=O)oc2cc(OCc3ccc(Br)cc3Br)ccc12
system: UniProtKB O42275
IC50: > 100 µM
//
smilesEntry: Cc1c(C#N)c(=O)oc2cc(OCCN3CCC(Cc4ccccc4)CC3)ccc12
system: UniProtKB O42275
IC50: 9.1 µM
//
smilesEntry: Cc1cc(=O)oc2cc(OCc3ccc(Br)cc3)ccc12
system: UniProtKB O42275
IC50: > 100 µM
//
smilesEntry: Cc1c(Cl)c(=O)oc2cc(OCc3ccc(Br)cc3)ccc12
system: UniProtKB O42275
IC50: > 100 µM
//
smilesEntry: Cc1cc(=O)oc2cc(OCCN3CCC(Cc4ccccc4)CC3)ccc12
system: UniProtKB O42275
IC50: 29.4 µM
//
smilesEntry: Cc1c(Cl)c(=O)oc2cc(OCc3ccccc3)ccc12
system: UniProtKB O42275
IC50: > 100 µM
//
smilesEntry: O=c1cc(C(F)(F)F)c2ccc(OCCN3CCC(Cc4ccccc4)CC3)cc2o1
system: UniProtKB O42275
IC50: > 100 µM

Data request: Query for UniProtKB O42275: what IC50 does the record show for O=c1cc(C(F)(F)F)c2ccc(OCCN3CCN(Cc4ccc(Br)cc4)CC3)cc2o1 ?
Data returned: > 100 µM

Data request: Query for UniProtKB O42275: what IC50 does the record show for Cc1c(C#N)c(=O)oc2cc(OCc3ccccc3)ccc12 ?
Data returned: > 100 µM

Data request: Query for UniProtKB O42275: what IC50 does the record show for O=c1ccc2ccc(OCCN3CCC(Cc4ccccc4)CC3)cc2o1 ?
Data returned: 36.7 µM

Data request: Query for UniProtKB O42275: what IC50 does the record show for Cc1cc(=O)oc2cc(OCCN3CCN(Cc4ccc(Br)cc4)CC3)ccc12 ?
Data returned: 12.8 µM

Data request: Query for UniProtKB O42275: what IC50 does the record show for Cc1c(Cl)c(=O)oc2cc(OCCN3CCN(Cc4ccc(Br)cc4)CC3)ccc12 ?
Data returned: > 100 µM

Data request: Query for UniProtKB O42275: what IC50 does the record show for Cc1c(C#N)c(=O)oc2cc(OCc3ccc(Br)cc3)ccc12 ?
Data returned: > 100 µM

Data request: Query for UniProtKB O42275: what IC50 does the record show for Cc1c(C#N)c(=O)oc2cc(OCc3ccc(F)cc3)ccc12 ?
Data returned: > 100 µM

meta.source: ChEMBL document CHEMBL4041499
